Conditions: buffer; pH 7.4; 200.0 µM
RESULT_TYPE: solubility kinetic

Supply reported solubility kinetic belonging to this compound: CN(CC(=O)Nc1ccc(F)c(F)c1F)C(=O)/C=C/c1ccco1
> 50.7 µg/mL

Give recorded solubility kinetic. CC1(C)CC(NC(=O)c2cccc(Cl)c2)CC(C)(C)N1
> 44.2 µg/mL

Determine its reported solubility kinetic: Cc1ccc(C(=O)NC2CC3CCC(C2)N3)cc1 (stereo not given)
> 36.7 µg/mL

Look up and report measured solubility kinetic for this entry: CC(C(=O)NC1CCCCCC1)n1cc([N+](=O)[O-])cn1 (stereo not given)
> 42 µg/mL

Report solubility kinetic, nothing else, for this compound: CCCC(=O)OCC(=O)c1[nH]c(C)c(C(C)=O)c1C
> 39.8 µg/mL
